Values compiled from the Human Domainome abundance scans (Beltran et al. 2025).

B1: Ankyrin-2, residues 3571 to 3650; numbered along this chain, Q01484 (parent)
chain: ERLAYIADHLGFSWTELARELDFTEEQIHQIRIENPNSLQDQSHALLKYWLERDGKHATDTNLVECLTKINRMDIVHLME

variants of: B1; test: abundance fitness (aPCA) (normalised: wild type 0, dead -1); higher = more abundant; growth selection in yeast, the domain comes from the species named; details: Homo sapiens
measured.property: abundance fitness
// return just the number, without any unit appended

Illustrative cases are given below, each with its answer.
mutant.label: W50R
abundance fitness: -0.205
//
mutant.label: E52V
abundance fitness: 0.006
//
mutant.label: Q40T
abundance fitness: -0.033
//
mutant.label: S38D
abundance fitness: -0.038

Please report the recorded abundance fitness for L10P . -0.819

And E34Y ? -0.148

And L46A ? 0.143

And E25D ? 0.016

And Y49I ? -0.009
